src = patent US12281155

Below, each entry is listed alongside its reported Blocking %.
# targetOfAssay: T1, recombinant SARS-CoV-2 Spike RBD domain, JN-1 variant (SARS-CoV-2)
# T1 construct: also called RBD JN-1 variant
# experimentSummary: competition ELISA, blocking of RBD binding to ACE2 ectodomain

binder	Blocking % (%)
SPK002M B1 antibody (antibody, human IgG1, kappa, V domains shown) VH: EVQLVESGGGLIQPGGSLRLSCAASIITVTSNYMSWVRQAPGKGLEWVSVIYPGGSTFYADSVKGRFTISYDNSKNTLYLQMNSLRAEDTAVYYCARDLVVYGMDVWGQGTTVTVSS VL: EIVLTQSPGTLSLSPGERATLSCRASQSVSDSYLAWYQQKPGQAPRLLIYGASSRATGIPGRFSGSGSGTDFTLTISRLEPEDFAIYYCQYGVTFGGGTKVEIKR	66
SPK002M C3 antibody (antibody, human IgG1, kappa, V domains shown) VH: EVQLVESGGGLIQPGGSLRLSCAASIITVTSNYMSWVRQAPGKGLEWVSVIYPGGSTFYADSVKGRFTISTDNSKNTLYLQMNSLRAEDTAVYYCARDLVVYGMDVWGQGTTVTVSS VL: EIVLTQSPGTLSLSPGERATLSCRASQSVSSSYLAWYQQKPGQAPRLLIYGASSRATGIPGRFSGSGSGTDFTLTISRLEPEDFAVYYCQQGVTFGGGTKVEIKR	0
SPK002M A3 antibody (antibody, human IgG1, kappa, V domains shown) VH: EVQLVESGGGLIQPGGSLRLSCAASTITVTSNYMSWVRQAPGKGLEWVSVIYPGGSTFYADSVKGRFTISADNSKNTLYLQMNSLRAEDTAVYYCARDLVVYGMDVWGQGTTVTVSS VL: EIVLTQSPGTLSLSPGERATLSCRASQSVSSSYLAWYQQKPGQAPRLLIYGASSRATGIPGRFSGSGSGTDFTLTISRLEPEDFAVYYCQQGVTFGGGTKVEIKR	0
SPK002M A4 antibody (antibody, human IgG1, kappa, V domains shown) VH: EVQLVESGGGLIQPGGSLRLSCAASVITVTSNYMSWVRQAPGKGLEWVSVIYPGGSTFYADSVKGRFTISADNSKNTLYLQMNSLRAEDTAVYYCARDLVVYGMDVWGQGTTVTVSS VL: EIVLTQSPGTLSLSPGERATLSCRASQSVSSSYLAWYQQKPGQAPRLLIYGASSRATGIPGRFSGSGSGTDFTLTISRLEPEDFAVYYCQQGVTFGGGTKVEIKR	2
SPK002M C1 antibody (antibody, human IgG1, kappa, V domains shown) VH: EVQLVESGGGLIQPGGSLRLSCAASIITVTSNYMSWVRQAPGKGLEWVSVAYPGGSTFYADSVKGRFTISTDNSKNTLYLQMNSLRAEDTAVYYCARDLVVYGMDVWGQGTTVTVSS VL: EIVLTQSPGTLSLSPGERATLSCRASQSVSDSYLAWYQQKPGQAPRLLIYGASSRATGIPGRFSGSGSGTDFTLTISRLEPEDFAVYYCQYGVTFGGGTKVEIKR	83
SPK002M A2 antibody (antibody, human IgG1, kappa, V domains shown) VH: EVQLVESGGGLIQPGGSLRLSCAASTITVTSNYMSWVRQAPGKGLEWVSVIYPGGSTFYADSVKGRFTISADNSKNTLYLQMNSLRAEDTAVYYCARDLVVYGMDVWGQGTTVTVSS VL: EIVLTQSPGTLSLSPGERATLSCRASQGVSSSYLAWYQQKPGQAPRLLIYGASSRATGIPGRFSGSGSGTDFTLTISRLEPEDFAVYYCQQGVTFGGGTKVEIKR	1
SPK002M A1 antibody (antibody, human IgG1, kappa, V domains shown) VH: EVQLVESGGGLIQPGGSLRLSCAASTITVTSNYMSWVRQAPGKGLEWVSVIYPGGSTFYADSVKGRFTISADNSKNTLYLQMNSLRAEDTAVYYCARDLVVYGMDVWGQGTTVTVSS VL: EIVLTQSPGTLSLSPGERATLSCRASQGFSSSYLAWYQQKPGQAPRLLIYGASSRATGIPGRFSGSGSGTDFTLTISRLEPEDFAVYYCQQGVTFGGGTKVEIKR	71
